The compounds below have reported Ki for NS3 (Hepatitis C virus, UniProt A3EZJ3).
Numbered stars: 1 amine (or outer) side, 2 acyl side, 3 side chain; on linkers, the order of the positions; unused ones are H or OH. Square brackets hold non-standard residues; d marks the D form. Peptide text beside a SMILES is read from it. * marks the point of attachment. Isobutyloxycarbonyl = CC(C)COC(=O)*; Ala(cPr) = N[C@@H](CC1CC1)C(=O)O; X1 = CCCC(N[*:1])C(=O)C(=O)[*:2]; Ahp(2) = CCCCC[C@H](N)C(=O)O; Cba = N[C@@H](CC1CCC1)C(=O)O; Chg = N[C@H](C(=O)O)C1CCCCC1; Phg = N[C@H](C(=O)O)c1ccccc1; hLeu = CC(C)CC[C@H](N)C(=O)O
Answer with a number only, understood to be in nM.

Past entries and their recorded results:
compound	reported
CCCCC[C@H](NC(=O)[C@@H](NC(=O)OCC(C)C)C1CCCCC1)C(=O)NC(CCC)C(=O)C(=O)NCC(=O)N[C@H](C(=O)O)c1ccccc1 (some centres undefined) (Isobutyloxycarbonyl-[Chg][Ahp(2)][X1]G[Phg]-OH)	300
CCCC(NC(=O)[C@H](CC1CC1)NC(=O)[C@@H](NC(=O)OCC(C)C)C1CCCCC1)C(=O)C(=O)NCC(=O)N[C@H](C(=O)O)c1ccccc1 (some centres undefined) (Isobutyloxycarbonyl-[Chg][Ala(cPr)][X1]G[Phg]-OH)	50
CCCC(NC(=O)[C@H](CCC(C)C)NC(=O)[C@@H](NC(=O)OCC(C)C)C1CCCCC1)C(=O)C(=O)NCC(=O)N[C@H](C(=O)O)c1ccccc1 (some centres undefined) (Isobutyloxycarbonyl-[Chg][hLeu][X1]G[Phg]-OH)	310

Query string: // returns reported Ki for input CCCC(NC(=O)[C@H](CC1CCC1)NC(=O)[C@@H](NC(=O)OCC(C)C)C1CCCCC1)C(=O)C(=O)NCC(=O)N[C@H](C(=O)O)c1ccccc1 (some centres undefined) (Isobutyloxycarbonyl-[Chg][Cba][X1]G[Phg]-OH)
Result string: 140

Every entry's value here was drawn from ChEMBL document CHEMBL1142850.
